Please find below Ki data on Tyrosine-protein phosphatase non-receptor type 2 (Homo sapiens) compiled from the literature.
Sequence (P17706 whole entry): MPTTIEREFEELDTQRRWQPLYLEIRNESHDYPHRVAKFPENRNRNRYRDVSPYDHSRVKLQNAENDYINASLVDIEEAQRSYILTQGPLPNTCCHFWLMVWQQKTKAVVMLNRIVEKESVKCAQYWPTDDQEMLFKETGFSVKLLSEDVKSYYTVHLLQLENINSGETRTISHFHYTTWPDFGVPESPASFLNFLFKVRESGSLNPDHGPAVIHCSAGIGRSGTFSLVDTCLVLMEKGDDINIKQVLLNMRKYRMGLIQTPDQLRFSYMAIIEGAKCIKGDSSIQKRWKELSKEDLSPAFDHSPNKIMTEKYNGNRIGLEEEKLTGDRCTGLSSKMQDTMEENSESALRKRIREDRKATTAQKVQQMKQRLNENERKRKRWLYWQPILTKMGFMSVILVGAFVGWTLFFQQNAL
MEASURED_ATTRIBUTE: Ki (µM)

I = O=C(O)COc1c(O)cc(-c2cc(C(F)(F)F)cc(C(F)(F)F)c2)cc1OCc1ccc(C(F)(F)F)cc1
II = O=C(O)C(=O)Nc1ccc(I)cc1C(=O)O
III = CCc1cc(CC(NC(C)=O)C(=O)NCCCCC(=O)N[C@@H](CCC(N)=O)C(=O)O)ccc1N(C(=O)C(=O)O)c1ccccc1C(=O)O (stereo partly drawn)
Q: Rank by Ki (largest to smallest). Put the labels in the requested order and write them down.
Ans: II, I, III
(II: 14 µM, I: 8.2 µM, III: 0.27 µM)
